pIC50: −log10 of the molar value.
Here's a batch of compounds along with measured pIC50 for MERS-CoV 3CLpro (Middle East respiratory syndrome-related coronavirus, UniProt K9N638).

Lab note: compound CC(C)(C)OC(=O)N[C@H]1CCCC[C@H]2CNC(=O)[C@H]2C[C@@H](C#N)NC(=O)[C@H]2N(CC(F)(F)C2(C)C)C1=O tested on MERS-CoV 3CLpro (Middle East respiratory syndrome-related coronavirus, UniProt K9N638); recorded pIC50 was 6.00 to 7.00

Kindly note: MERS-CoV 3CLpro (Middle East respiratory syndrome-related coronavirus, UniProt K9N638), CC(C)(C)OC(=O)NN1CCCC[C@H]2CNC(=O)[C@H]2C[C@@H](C#N)NC(=O)[C@@H]2[C@@H]3[C@H](CN2C1=O)C3(C)C , pIC50 value reported: 4.70 to 6.00

Entry CC(C)C[C@@H]1NC(=O)[C@@H](Cc2ccc(F)cc2)CCCC[C@H]2CNC(=O)[C@H]2C[C@@H](C#N)NC1=O under MERS-CoV 3CLpro (Middle East respiratory syndrome-related coronavirus, UniProt K9N638) had pIC50 of 4.70 to 6.00

The compound CC1(C)[C@@H]2[C@H]3C(=O)N[C@H](C#N)C[C@@H]4C(=O)NC[C@@H]4CCCC[C@H](NS(=O)(=O)C4CC4)C(=O)N3C[C@@H]21 on MERS-CoV 3CLpro (Middle East respiratory syndrome-related coronavirus, UniProt K9N638): pIC50 was > 7.00

Form field pIC50 for item CC(C)C[C@@H]1NC(=O)[C@@H](Cc2ccccc2)CCC[C@H]2CNC(=O)[C@@H]2C[C@@H](C#N)NC1=O on MERS-CoV 3CLpro (Middle East respiratory syndrome-related coronavirus, UniProt K9N638): 4.70 to 6.00

Noted pIC50 for N#C[C@@H]1C[C@@H]2C(=O)NC[C@@H]2CCCC[C@H](NS(=O)(=O)c2ccc(F)cc2F)C(=O)N2C[C@@H]3CCC[C@@H]3[C@H]2C(=O)N1 , tested on MERS-CoV 3CLpro (Middle East respiratory syndrome-related coronavirus, UniProt K9N638): 6.00 to 7.00

Record for CC(C)C[C@@H]1NC(=O)[C@@H](NC(=O)C(C)(C)C)CC/C=C\[C@H]2CNC(=O)[C@H]2C[C@@H](C#N)NC1=O under target or system MERS-CoV 3CLpro (Middle East respiratory syndrome-related coronavirus, UniProt K9N638): pIC50 reported as 4.70 to 6.00

Field pIC50 (system: MERS-CoV 3CLpro (Middle East respiratory syndrome-related coronavirus, UniProt K9N638)) for entry CN1C[C@@H]2CCCC[C@H](NC(=O)OC(C)(C)C)C(=O)N3C[C@H]4[C@@H]([C@H]3C(=O)N[C@H](C#N)C[C@@H]2C1=O)C4(C)C = 6.00 to 7.00

---

pIC50: −log10 of the molar value.
Assay system UniProtKB K9N638; read-out recorded as pIC50.

>>> df
                                   compound        result
0  CC(C)(C)C(=O)N[C@H]1CCCC[C@H]2CNC(=O)[C@@H]2C[C@@H](C#N)NC(=O)[C@@H]2[C@@H]3[C@H](CN2C1=O)C3(C)C [Example 67]  6.00 to 7.00
1  CC(C)C[C@@H]1NC(=O)[C@@H](NC(=O)C(C)(C)C)CCCC[C@H]2CNC(=O)[C@H]2C[C@@H](C#N)NC1=O [Example 44]  6.00 to 7.00
2  CC(C)(C)NC(=O)[C@@H]1CCCC[C@H]2CNC(=O)[C@H]2C[C@@H](C#N)NC(=O)[C@@H]2[C@@H]3[C@H](CN2C1=O)C3(C)C [Example 166]        < 4.70
3  CO[C@@H]1C[C@H]2C(=O)N[C@H](C#N)C[C@@H]3C(=O)NC[C@@H]3CCCC[C@H](NC(=O)OC(C)(C)C)C(=O)N2C1 [Example 147]  6.00 to 7.00
4  CC1(C)[C@@H]2[C@H]3C(=O)N[C@H](C#N)C[C@@H]4C(=O)NCC[C@@H]4CCCC[C@H](NC(=O)OC4CCCC4)C(=O)N3C[C@@H]21 [Example 124]        > 7.00

As a next step, examine the compound that follows.
Field pIC50 (UniProtKB K9N638), entry CC(C)(C)C(=O)N[C@H]1CCCC[C@H]2CNC(=O)[C@H]2C[C@@H](C#N)NC(=O)[C@@H]2[C@@H]3[C@H](CN2C1=O)C3(C)C [Example 55] : 6.00 to 7.00
